- Tested on: Puccinia triticina
- Procedure Text: Fungicidal activity: wheat brown rust (PUCCRT), percent disease control on wheat seedlings
- Type: in vivo
- Condition Parameters: Puccinia triticina, 24 h, LV (low volume) activity at 121.5 g/H, 1 Day Protectant, read-out: PUCCRT 1DP disease control rating

>  <Compound>
COc1ccnc(C(=O)N[C@@H](C)C(=O)O[C@@H](C)[C@H](Sc2ccccc2)c2ccccc2)c1OC(C)=O [Compound 82]

>  <pest or weed control at 121.5 g/ha>
> 80%

$$$$
>  <Compound>
COc1ccnc(C(=O)N[C@@H](C)C(=O)O[C@@H](C)[C@@H](c2ccccc2)S(=O)(=O)Cc2ccccc2)c1OC(C)=O [Compound 72]

>  <pest or weed control at 121.5 g/ha>
≤ 0%

$$$$
>  <Compound>
COc1ccnc(C(=O)N[C@@H](C)C(=O)O[C@@H](C)[C@@H](c2ccccc2)S(=O)(=O)c2ccc(F)cc2)c1OC(C)=O [Compound 64]

>  <pest or weed control at 121.5 g/ha>
≤ 80%

$$$$
>  <Compound>
COc1ccnc(C(=O)N[C@@H](C)C(=O)O[C@@H](C)[C@H](SCC(C)C)c2ccccc2)c1OC(C)=O [Compound 69]

>  <pest or weed control at 121.5 g/ha>
> 80%

$$$$
>  <Compound>
CCc1cc(F)ccc1[C@@H](Sc1ccccc1)[C@H](C)OC(=O)[C@H](C)NC(=O)c1nccc(OC)c1OC(C)=O [Compound 59]

>  <pest or weed control at 121.5 g/ha>
> 80%

$$$$
>  <Compound>
COc1ccnc(C(=O)N[C@@H](C)C(=O)O[C@@H](C)[C@H](Sc2ccccc2)c2ccccc2)c1OC(=O)C(C)C [Compound 81]

>  <pest or weed control at 121.5 g/ha>
≤ 80%

$$$$
